Recorded values, source patent US9809583B2.

# Target system: androgen receptor (hAR) (Homo sapiens (Human), UniProt P10275)
# Sequence (P10275 whole entry): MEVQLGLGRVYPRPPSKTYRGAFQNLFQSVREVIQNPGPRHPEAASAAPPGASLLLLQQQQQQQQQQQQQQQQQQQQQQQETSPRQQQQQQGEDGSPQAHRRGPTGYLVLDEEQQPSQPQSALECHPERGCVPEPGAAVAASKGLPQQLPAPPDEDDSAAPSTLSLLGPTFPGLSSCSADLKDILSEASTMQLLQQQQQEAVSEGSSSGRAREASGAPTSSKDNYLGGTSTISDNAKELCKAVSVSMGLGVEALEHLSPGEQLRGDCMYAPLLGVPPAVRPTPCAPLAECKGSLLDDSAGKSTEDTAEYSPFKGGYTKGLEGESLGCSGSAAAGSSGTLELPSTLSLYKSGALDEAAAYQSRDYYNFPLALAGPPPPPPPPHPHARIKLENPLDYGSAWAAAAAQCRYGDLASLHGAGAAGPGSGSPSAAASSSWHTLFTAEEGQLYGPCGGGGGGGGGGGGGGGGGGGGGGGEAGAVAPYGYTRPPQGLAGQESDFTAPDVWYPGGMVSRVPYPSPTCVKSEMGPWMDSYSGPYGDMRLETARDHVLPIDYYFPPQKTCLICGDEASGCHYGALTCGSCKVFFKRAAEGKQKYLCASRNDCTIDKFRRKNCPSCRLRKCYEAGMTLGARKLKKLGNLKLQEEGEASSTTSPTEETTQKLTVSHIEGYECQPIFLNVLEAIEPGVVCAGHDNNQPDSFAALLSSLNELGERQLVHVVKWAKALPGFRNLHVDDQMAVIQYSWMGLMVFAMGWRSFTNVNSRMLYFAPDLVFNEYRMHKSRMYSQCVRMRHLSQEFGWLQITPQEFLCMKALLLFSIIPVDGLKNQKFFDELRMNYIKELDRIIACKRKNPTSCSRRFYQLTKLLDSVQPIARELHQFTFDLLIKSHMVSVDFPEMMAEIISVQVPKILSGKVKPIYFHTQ
# Run description: Test of transcriptional activity (hAR / ARE-Luc dual-luciferase assay in CHO cells)
# Format: cell-based
# Measurement conditions: EC50 [nM] (mean ± SE), CHO cells with hAR and ARE-Luc, 24 hours; 10 nM DHT = 100%

# Compound, EC50, nM
data = [
    ("N#Cc1ccc(N2C[C@@H](C(=O)Nc3ccc(O)cc3)O[C@@H]2C(F)(F)F)cc1C(F)(F)F [Example 148]", 13.5),
    ("N#Cc1ccc(OC[C@@H]2CN(c3ccc(C#N)c(C(F)(F)F)c3)[C@@H](C(F)(F)F)O2)c([N+](=O)[O-])c1 [Example 99]", 97.3),
    ("N#Cc1ccc(NC(=O)[C@@H]2CN(c3ccc(C#N)c(C(F)(F)F)c3)[C@@H](C(F)(F)F)O2)cc1F [Example 147]", 768),
    ("N#Cc1ccc(OC[C@@H]2CN(c3ccc(C#N)c(C(F)(F)F)c3)[C@H](C(F)(F)F)O2)cc1 [Example 6]", 4.1),
]

###

This listing pairs molecules with measured ventral prostate weight % relative to intact control group.
# Tested on: castrated male rats
# Run description: Efficacy test in castrated male rat (Hershberger assay)
# Assay type: in vivo, SD (Sprague-Dawley) rat
# Measurement conditions: castrated male SD rats, oral once a day for 14 days, 30 mg/kg
Value kind: ventral prostate weight % relative to intact control group

# Molecule, Measured result
measured = [
    ("COC(=O)N1CCN(C(=O)[C@@H]2CN(c3ccc(C#N)c(C(F)(F)F)c3)[C@@H](C(F)(F)F)O2)CC1 [Example 173]", "33.2 ± 3.3%"),
    ("N#Cc1ccc(OC[C@@H]2CN(c3ccc(C#N)c(C(F)(F)F)c3)[C@@H](C(F)(F)F)O2)cc1 [Example 19]", "18.3 ± 4.5%"),
    ("N#Cc1ccc(OC[C@@H]2CN(c3ccc(C#N)c(C(F)(F)F)c3)[C@@H](C(F)(F)F)O2)cn1 [Example 44]", "34.7 ± 4.1%"),
    ("COC(=O)Nc1ccc(OC[C@@H]2CN(c3ccc(C#N)c(C(F)(F)F)c3)[C@@H](C(F)(F)F)O2)cc1 [Example 36]", "10.8 ± 3.1%"),
]

###

# Target system: androgen receptor (hAR) (Homo sapiens (Human), UniProt P10275)
# Run description: Test of transcriptional activity (hAR / ARE-Luc dual-luciferase assay in CHO cells)
# Type: cell-based
# Measurement conditions: EC50 [nM] (mean ± SE), CHO cells with hAR and ARE-Luc, 24 hours; 10 nM DHT = 100%
Threshold-based label: EC50 under 20 nM gives t, EC50 not under 20 nM gives f.

# Compound, Discrete label
records = [
    ("N#Cc1ccc(N2C[C@@H](COc3ccc([N+](=O)[O-])c(F)c3)O[C@@H]2C(F)(F)F)cc1C(F)(F)F [Example 31]", "t"),
    ("N#Cc1ccc(N2C[C@@H](COc3ccncc3)O[C@H]2C(F)(F)F)cc1C(F)(F)F [Example 80]", "f"),
    ("N#Cc1ccc(N2C[C@@H](COc3ccnc(Cl)c3)O[C@@H]2C(F)(F)F)cc1C(F)(F)F [Example 68]", "t"),
    ("N#Cc1ccc(OC[C@@H]2CN(c3ccc(C#N)c(C(F)(F)F)c3)[C@@H](C(F)(F)F)O2)cc1 [Example 19]", "t"),
    ("CC(=O)N1CCN(C(=O)[C@@H]2CN(c3ccc(C#N)c(C(F)(F)F)c3)[C@@H](C(F)(F)F)O2)CC1 [Example 172]", "f"),
    ("N#Cc1ccc(N2C[C@@H](COc3ccc(NC(=O)CO)cc3)O[C@@H]2C(F)(F)F)cc1C(F)(F)F [Example 94]", "t"),
    ("N#Cc1ccc(N2C[C@@H](C(=O)Nc3ccc(F)c(F)c3)O[C@@H]2C(F)(F)F)cc1C(F)(F)F [Example 140]", "t"),
    ("N#Cc1ccc(N2C[C@@H](CSc3ccc(Cl)cc3)O[C@@H]2C(F)(F)F)cc1C(F)(F)F [Example 26]", "t"),
    ("CC(=O)N1CCC(NC(=O)[C@@H]2CN(c3ccc(C#N)c(C(F)(F)F)c3)[C@@H](C(F)(F)F)O2)CC1 [Example 170]", "f"),
    ("N#Cc1ccc(N2C[C@@H](COc3cccnc3)O[C@@H]2C(F)(F)F)cc1C(F)(F)F [Example 60]", "t"),
    ("N#Cc1ccc(N2C[C@@H](C(=O)Nc3ccc(N)cc3F)O[C@@H]2C(F)(F)F)cc1C(F)(F)F [Example 105]", "f"),
    ("N#Cc1ccc(N2C[C@@H](COc3ccc(NC(=O)Oc4ccccc4)cc3)O[C@@H]2C(F)(F)F)cc1C(F)(F)F [Example 43]", "f"),
    ("CC(=O)NC1CCN(C(=O)[C@@H]2CN(c3ccc(C#N)c(C(F)(F)F)c3)[C@@H](C(F)(F)F)O2)CC1 [Example 176]", "f"),
]

###

# Tested on: castrated male rats
# Run description: Efficacy test in castrated male rat (Hershberger assay)
# Assay type: in vivo, SD (Sprague-Dawley) rat
# Measurement conditions: castrated male SD rats, oral once a day for 14 days, 0.1 mg/kg
Value kind: ventral prostate weight % relative to intact control group (%)

# Entry smiles, Target system, Measured result
measured = [
    ("COC(=O)Nc1ccc(OC[C@@H]2CN(c3ccc(C#N)c(C(F)(F)F)c3)[C@@H](C(F)(F)F)O2)cc1", "castrated male rats", 1.0),
    ("COC(=O)N1CCN(C(=O)[C@@H]2CN(c3ccc(C#N)c(C(F)(F)F)c3)[C@@H](C(F)(F)F)O2)CC1", "castrated male rats", 3.2),
    ("CC(=O)Nc1ccc(OC[C@@H]2CN(c3ccc(C#N)c(C(F)(F)F)c3)[C@@H](C(F)(F)F)O2)cc1", "castrated male rats", 3.2),
    ("N#Cc1ccc(OC[C@@H]2CN(c3ccc(C#N)c(C(F)(F)F)c3)[C@@H](C(F)(F)F)O2)cn1", "castrated male rats", 7.0),
]

###

# System: castrated male rats
# Run description: Efficacy test in castrated male rat (Hershberger assay)
# Type: in vivo, SD (Sprague-Dawley) rat
# Measurement conditions: castrated male SD rats, oral once a day for 14 days, 100 mg/kg
Value kind: seminal vesicles weight % relative to intact control group (%)

# Entry smiles, Measured result
records = [
    ("COC(=O)Nc1ccc(OC[C@@H]2CN(c3ccc(C#N)c(C(F)(F)F)c3)[C@@H](C(F)(F)F)O2)cc1", 16.1),
    ("N#Cc1ccc(OC[C@@H]2CN(c3ccc(C#N)c(C(F)(F)F)c3)[C@@H](C(F)(F)F)O2)cn1", 72.4),
    ("N#Cc1ccc(OC[C@@H]2CN(c3ccc(C#N)c(C(F)(F)F)c3)[C@@H](C(F)(F)F)O2)cc1", 36.4),
    ("COC(=O)N1CCN(C(=O)[C@@H]2CN(c3ccc(C#N)c(C(F)(F)F)c3)[C@@H](C(F)(F)F)O2)CC1", 52.8),
]

###

# Target system: androgen receptor (hAR) (Homo sapiens (Human), UniProt P10275)
# Run description: Test of transcriptional activity (hAR / ARE-Luc dual-luciferase assay in CHO cells)
# Assay type: cell-based
# Measurement conditions: EC50 [nM] (mean ± SE), CHO cells with hAR and ARE-Luc, 24 hours; 10 nM DHT = 100%
This listing pairs compounds with measured log10(EC50).
Value kind: log10(EC50) (log10 of the value in nM)

# Entry smiles, log10(EC50)
data = [
    ("N#Cc1ccc(N2C[C@@H](COc3ccc(F)c(F)c3)O[C@@H]2C(F)(F)F)cc1C(F)(F)F", 1.05),
    ("CC(=O)Nc1ccc(NC(=O)[C@@H]2CN(c3ccc(C#N)c(C(F)(F)F)c3)[C@@H](C(F)(F)F)O2)c(F)c1", 2.19),
    ("CS(=O)(=O)Nc1ccc(OC[C@@H]2CN(c3ccc(C#N)c(C(F)(F)F)c3)[C@@H](C(F)(F)F)O2)cc1", 1.63),
    ("N#Cc1ccc(N2C[C@@H](C(=O)Nc3ccc(NC(N)=O)cc3)O[C@@H]2C(F)(F)F)cc1C(F)(F)F", 2.38),
    ("CCOC(=O)Nc1ccc(OC[C@@H]2CN(c3ccc(C#N)c(C(F)(F)F)c3)[C@@H](C(F)(F)F)O2)cc1", 1.21),
    ("N#Cc1ccc(N2C[C@@H](COc3ccc(Cl)cc3)O[C@@H]2C(F)(F)F)cc1C(F)(F)F", 1.88),
    ("N#Cc1ccc(N2C[C@@H](COc3ccncc3)O[C@@H]2C(F)(F)F)cc1C(F)(F)F", 0.51),
]
